target: HA of ca A/Wuhan/359/95 (H3N2) virus (influenza A virus); assay: cell-based or functional assay
Item-by-item account of Neutralization IC50, H3-WH95
Give the quantity in µg/mL, number only.

Worked cases, answers included:
[[record]]
binder = "Antibody 13 (antibody, V domains shown) VH: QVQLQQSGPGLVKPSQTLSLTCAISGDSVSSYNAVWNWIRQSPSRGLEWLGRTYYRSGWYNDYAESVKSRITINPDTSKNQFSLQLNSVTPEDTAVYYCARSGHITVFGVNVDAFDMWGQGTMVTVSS VL: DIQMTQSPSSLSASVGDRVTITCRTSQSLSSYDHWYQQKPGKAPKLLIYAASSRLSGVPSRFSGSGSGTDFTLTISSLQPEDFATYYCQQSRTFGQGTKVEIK"
result_value = 2.77

[[record]]
binder = "Antibody 3 (antibody, V domains shown) VH: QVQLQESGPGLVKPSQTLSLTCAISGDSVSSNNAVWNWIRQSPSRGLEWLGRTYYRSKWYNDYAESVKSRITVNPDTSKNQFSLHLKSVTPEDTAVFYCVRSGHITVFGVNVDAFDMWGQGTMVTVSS VL: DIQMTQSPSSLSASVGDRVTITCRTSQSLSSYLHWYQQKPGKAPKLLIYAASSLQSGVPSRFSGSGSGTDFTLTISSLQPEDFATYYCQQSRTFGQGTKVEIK"
result_value = 5.63


Could you now consider this next binder?
Consider Antibody 14 (antibody, V domains shown) VH: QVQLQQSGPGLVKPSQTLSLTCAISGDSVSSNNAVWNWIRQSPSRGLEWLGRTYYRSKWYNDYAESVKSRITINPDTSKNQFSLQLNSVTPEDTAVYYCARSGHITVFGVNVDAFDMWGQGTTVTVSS VL: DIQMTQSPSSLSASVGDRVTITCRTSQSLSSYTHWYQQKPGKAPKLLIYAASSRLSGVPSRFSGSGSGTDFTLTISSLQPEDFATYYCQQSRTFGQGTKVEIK . Its measured Neutralization IC50, H3-WH95 is 2.77

Reference source for all entries: patent US20200109188A1
